Target entity: rat 5-HT7 receptors (Rattus norvegicus (Rat))
Sequence (P32305 1-435): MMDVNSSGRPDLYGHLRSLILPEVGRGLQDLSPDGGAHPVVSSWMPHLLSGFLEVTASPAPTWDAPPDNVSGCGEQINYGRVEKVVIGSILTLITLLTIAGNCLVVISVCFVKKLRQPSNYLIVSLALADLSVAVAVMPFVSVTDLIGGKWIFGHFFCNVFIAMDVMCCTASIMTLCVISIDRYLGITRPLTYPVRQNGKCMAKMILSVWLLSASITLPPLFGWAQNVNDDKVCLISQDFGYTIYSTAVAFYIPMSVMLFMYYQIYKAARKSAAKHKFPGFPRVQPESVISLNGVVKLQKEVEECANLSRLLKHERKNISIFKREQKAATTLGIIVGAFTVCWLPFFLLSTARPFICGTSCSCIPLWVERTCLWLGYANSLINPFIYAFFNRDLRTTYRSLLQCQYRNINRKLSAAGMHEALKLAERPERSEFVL
Test: r5-HT7 competitive radioligand binding assay ([3H]5-CT)
Condition notes: membrane fractions of HEK-293 cells recombinantly expressing rat 5-HT7
pKi: −log10 of the molar value. Structures can show the parent of a compound that is named as a salt.
Classify by measured pKi: Y if it is equal to or exceeds 7, N if it is smaller.

I'd appreciate it if you could say whether Cc1cc(-c2ccc(Cl)cc2C2CCNC2)ccc1F (racemic) has pKi at least equal to 7.
N

Assess whether reported pKi for Cc1ccccc1-c1ccc(OC2CCC2)c(OC2CNC2)c1 sits at 7 or higher.
N

Decide: is the reported value of pKi for Cc1ccccc1-c1ccc(OCC(F)(F)F)c(OC2CNC2)c1 equal to or greater than 7?
N

Please check the record Cc1ccc(-c2ccccc2C2CCN(C)C2)cc1 (racemic) and state if its pKi is at or above 7.
N

Does the molecule COc1ccc(-c2ccccc2Cl)cc1OC1CN(C2CCC2)C1 [Example 19, trifluoroacetate] have recorded pKi that is 7 or more?
N

Evaluate CCN(CC)C(=O)c1ccc(-c2ccccc2C(F)(F)F)cc1OC1CNC1 : pKi at minimum 7?
N

Identify whether the reported pKi of the following molecule is 7 or greater: Cc1ccc(-c2ccc(Cl)cc2OC2CNC2)cc1C
N

# bool: pKi of COc1ccc(-c2ccccc2OC(F)(F)F)cc1OC1CNC1 >= 7
Y

Could you please find out whether COc1ccc(-c2ccccc2C#N)cc1OC1CNC1 [Example 3, trifluoroacetate] has pKi that meets 7 or exceeds it?
Y

Reported pKi reaches at least 7 for Cc1cccc(-c2ccc(Cl)cc2OC2CNC2)c1 ?
N

Hi, just wondering whether COc1ccc(-c2cccc(F)c2C)cc1OC1CNC1 shows pKi of 7 or higher.
Y

Check this molecule for pKi at or above 7: COc1ccc(-c2ccccc2)cc1OC1CCNCC1
N

Check this molecule for pKi at or above 7: Cc1ccccc1-c1ccc(OC(C)C)c(OC2CNC2)c1
N

Quick check: does COc1ccc(-c2ccccc2OC)cc1OC1CNC1 have pKi greater than or equal to 7?
Y

// inclusive: pKi at least 7? input: COc1ccc(-c2ccccc2Cl)cc1OC1CNC1
Y

Form field: pKi at least 7? Entry: N#Cc1ccc(-c2ccccc2)cc1OC1CNC1
N

Is it the case that Clc1ccc(-c2ccccc2C2CCNC2)cc1 (stereo not drawn) has pKi reaching or exceeding 7?
N

Is the recorded value of pKi equal to or greater than 7 for this molecule? COc1ccc(-c2ccccc2C)cc1C1CCNC1 (racemic)
Y

Does the molecule COc1ccc(-c2ccc(F)c(C)c2)cc1OC1CNC1 have recorded pKi that is 7 or more?
N

Can Cc1ccccc1-c1ccc(C#N)c(OC2CNC2)c1 be said to have pKi at or above 7?
N

// inclusive: pKi at least 7? input: Cc1ccccc1-c1ccccc1C1CCNC1 (racemic)
N

Determine whether measured pKi meets or exceeds 7 for CCOc1ccc(-c2ccccc2C)cc1OC1CNC1 [Example 32, hydrochloride]
N

Kindly determine if pKi recorded for COc1ccc(-c2ccc(F)cc2C)cc1OC1CNC1 is above or exactly 7.
Y

Answer whether pKi of COc1ccccc1-c1ccccc1C1CCN(C)C1 (racemic) is greater than or equal to 7.
N

Has COc1ccc(-c2c(C)cccc2C)cc1OC1CNC1 [Example 6, trifluoroacetate] a recorded pKi greater than or equal to 7?
Y

Textbook exercise: given the entry FC(F)(F)c1ccccc1-c1cccc(OC2CNC2)c1 , state whether its pKi is greater than or equal to 7.
Y

Hi team, for COc1ccc(-c2ccc(C)cc2)cc1OC1CNC1 , is the recorded pKi at or above 7?
N

Check the entry COc1ccc(-c2cccc(F)c2F)cc1C1CCNC1 (racemic) : does pKi equal or exceed 7?
Y

API: above_or_equal(metric=pKi, cutoff=7) for item COc1ccc(-c2ccccc2C(F)(F)F)cc1C1CCNC1 (racemic)
Y

Given COc1ccc(-c2cccc(F)c2C)cc1C1CCNC1 (racemic) , state whether its pKi is at least 7.
Y

Textbook exercise: given the entry Cc1ccccc1-c1ccc(OCC2CC2)c(OC2CNC2)c1 , state whether its pKi is greater than or equal to 7.
N

Is reported pKi greater than or equal to 7 here: COc1ccccc1-c1ccccc1C1CCNC1 (racemic)
N
